IC50 values for Protease (Human immunodeficiency virus 1) compiled from several publications are listed below.
IC50 under 400 nM gets YES, anything at or over 400 nM gets NO.

Exercise: Is 400 nM strictly greater than the compound's reported IC50? compound: `COc1ccc(N(CC(=O)N[C@@H](Cc2ccccc2)[C@H](O)CN(CC(C)C)S(=O)(=O)c2ccc([N+](=O)[O-])cc2)CC(=O)N2CCOCC2)cc1`
Solution: NO

Exercise: In plain terms, does `Cc1cn([C@H]2C[C@H](n3cc(CNCC(=O)N(Cc4ccccc4)Cc4cc5cc(Br)ccc5oc4=O)nn3)[C@@H](CO)O2)c(=O)[nH]c1=O` come in under 400 nM for IC50?
Solution: NO

Exercise: For this compound, is IC50 lower than 400 nM? `CC1(C)CC[C@]2(C(=O)NCCCC(=O)NCC(=O)O)CC[C@]3(C)C(=CC[C@@H]4[C@@]5(C)CC[C@H](OC(=O)CCCC(=O)O)C(C)(C)[C@@H]5CC[C@]43C)[C@@H]2C1`
Solution: NO

Exercise: Threshold test, IC50 < 400 nM: O=C1OC(COc2ccc3ccccc3c2)(c2ccccc2)CC(O)=C1SCc1ccccc1 (racemic)
Solution: YES

Exercise: # check: IC50 < 400 nM for `CC(C)CN(C[C@@H](O)[C@H](Cc1ccccc1)NC(=O)Cn1cc(CO)c(=O)[nH]c1=O)S(=O)(=O)c1ccc(N)cc1`
Solution: YES

Exercise: For `COc1ccc(S(=O)(=O)N(CC(C)C)C[C@@H](O)[C@H](Cc2ccccc2)NC(=O)Cn2cnc3cnc(N)nc32)cc1` , is the recorded IC50 below the cut-off of 400 nM?
Solution: YES
